Just for reference, paper PMC8079033 is where these values come from.

Test system: MALME-3M
Assay: NCI 60-cell line one-dose antiproliferative screen (SRB)
Assay type: cell-based
Details: Homo sapiens, read-out: growth inhibition % (GI%)
Result type: inhibition at 10 µM (%)

>  <Smiles text>
Cc1ccc(C(=O)c2ccc(CC(=O)NN=Cc3c[nH]c4ccccc34)n2C)cc1

>  <Value units>
%

>  <Relation symbol>
=

>  <Meas value>
19.3

$$$$
>  <Smiles text>
Cc1ccc(C(=O)c2ccc(CC(=O)NNC(=O)Nc3ccc(Cl)c(C(F)(F)F)c3)n2C)cc1

>  <Value units>
%

>  <Relation symbol>
<

>  <Meas value>
10

$$$$
>  <Smiles text>
Cc1ccc(C(=O)c2ccc(CC(=O)NN=C3C(=O)Nc4ccc(Br)cc43)n2C)cc1

>  <Value units>
%

>  <Relation symbol>
<

>  <Meas value>
10

$$$$
>  <Smiles text>
Cc1ccc(C(=O)c2ccc(CC(=O)NN=Cc3cc4ccccc4[nH]3)n2C)cc1

>  <Value units>
%

>  <Relation symbol>
<

>  <Meas value>
10

$$$$
>  <Smiles text>
Cc1ccc(C(=O)c2ccc(CC(=O)NN=Cc3ccccc3O)n2C)cc1

>  <Value units>
%

>  <Relation symbol>
<

>  <Meas value>
10

$$$$
>  <Smiles text>
Cc1ccc(C(=O)c2ccc(CC(=O)NN=Cc3cccc(O)c3O)n2C)cc1

>  <Value units>
%

>  <Relation symbol>
=

>  <Meas value>
41.3

$$$$
>  <Smiles text>
Cc1ccc(C(=O)c2ccc(CC(=O)NN=Cc3ccc(O)cc3O)n2C)cc1

>  <Value units>
%

>  <Relation symbol>
=

>  <Meas value>
51.4

$$$$
